Tested on: human monoclonal antibody CRJB
Type: binding
PROPERTY_NAME: Binding of CRJB (10 μg/ml) to looped/cyclic peptide (PEPSCAN-ELISA signal)

[
  {
    "SEQUENCE_STRING": "GVVTEAENYTNFVGY",
    "ENDPOINT_RESULT": 71
  },
  {
    "SEQUENCE_STRING": "LRTVKTTKESLVIIS",
    "ENDPOINT_RESULT": 68
  },
  {
    "SEQUENCE_STRING": "DPYDRSLHSRVFPSG",
    "ENDPOINT_RESULT": 71
  },
  {
    "SEQUENCE_STRING": "DLDPYDRSLHSRVFP",
    "ENDPOINT_RESULT": 68
  }
]

====

Test system: human monoclonal antibody CRJB
Assay type: binding
Labelling: Binding of CRJB (10 μg/ml) to looped/cyclic peptide (PEPSCAN-ELISA) reported below 90 becomes satisfied; at or above becomes not satisfied.

[
  {
    "SEQUENCE_STRING": "FRSDEIEHLVVEELV",
    "SYSTEM_NAME": "human monoclonal antibody CRJB",
    "QUALITATIVE_LABEL": "satisfied"
  },
  {
    "SEQUENCE_STRING": "MDGTWVAMQTSNETK",
    "SYSTEM_NAME": "human monoclonal antibody CRJB",
    "QUALITATIVE_LABEL": "satisfied"
  },
  {
    "SEQUENCE_STRING": "DAHYKSVRTWNEILP",
    "SYSTEM_NAME": "human monoclonal antibody CRJB",
    "QUALITATIVE_LABEL": "not satisfied"
  },
  {
    "SEQUENCE_STRING": "IPEMQSSLLQQHMEL",
    "SYSTEM_NAME": "human monoclonal antibody CRJB",
    "QUALITATIVE_LABEL": "satisfied"
  },
  {
    "SEQUENCE_STRING": "LRKLVPGFGKAYTIF",
    "SYSTEM_NAME": "human monoclonal antibody CRJB",
    "QUALITATIVE_LABEL": "not satisfied"
  },
  {
    "SEQUENCE_STRING": "SIMTTKSVSFRRLSH",
    "SYSTEM_NAME": "human monoclonal antibody CRJB",
    "QUALITATIVE_LABEL": "satisfied"
  }
]

====

Quick list: Binding of CR57 to linear peptide (PEPSCAN-ELISA signal) per entry.
Tested on: human monoclonal antibody CR57
Assay type: binding
PROPERTY_NAME: Binding of CR57 to linear peptide (PEPSCAN-ELISA signal)

[
  {
    "SEQUENCE_STRING": "CGVLGLRLMDGTWVA",
    "ENDPOINT_RESULT": 99
  },
  {
    "SEQUENCE_STRING": "SVRTWNEILPSKGCL",
    "ENDPOINT_RESULT": 106
  },
  {
    "SEQUENCE_STRING": "YDRSLHSRVFPSGKC",
    "ENDPOINT_RESULT": 364
  },
  {
    "SEQUENCE_STRING": "KLGPWSPIDIHHLSC",
    "ENDPOINT_RESULT": 72
  }
]
